# assay.notes: qHTS screen for small molecules that inhibit ELG1-dependent DNA repair in human embryonic kidney (HEK293T) cells expressing luciferase-tagged ELG1; note: nearly all actives have a fitted effect of over 55% in size
# experimental.parameters: HEK293T ELG1-luciferase reporter, luminescence, 16 h, DNA damage induced by 5-fluorouridine; series mostly up to 46.1 µM
Among all 330,000 compounds or so, about 7,700 (2.3%) were called active. Roughly 26% stayed inconclusive and do not appear here. Calls come from the whole dose curve; as a rule, active = well fitted inhibition curve with a large enough effect; inconclusive = small, poorly fitted or top-dose-only effect, or effect the other way; inactive = flat fitted curve, though single readings scatter. The full list was thinned out, with actives kept by preference.
Labels: yes for active, no for inactive

compound	class.name
COc1ccc(S(=O)(=O)N2CCCCC2)cc1Br	no
COc1cccc(OC)c1C(=O)NC(=S)NCc1ccco1	no
O=C(CN1C(=O)NC2(CCOc3ccccc32)C1=O)Nc1cccc([N+](=O)[O-])c1 (stereo not drawn)	no
Cc1c(NC(=O)C(C)OC(=O)c2ccccc2O)c(=O)n(-c2ccccc2)n1C (stereo not drawn)	no
O=S(=O)(Nc1cc(Cl)ccc1N1CCOCC1)c1ccccc1Cl	no
COc1ccccc1-c1nnc2n1N=C(c1ccc(OC(F)F)c(OCC3CC3)c1)CS2	no
COc1ccccc1C(=O)NCCC(=O)NCC(c1ccco1)N1CCCCC1 (stereo not drawn)	no
Cc1cccc(-c2oc3ccc(-c4ccc5c(c4)OCO5)cc3c2C#Cc2cncn2C)c1	no
COc1ccc(S(=O)(=O)N2CCOCC2)cc1C(=O)NC1CCCCC1	no
CCOC(=O)[C@@H]1[C@H]2COc3ccc(Br)cc3[C@H]2N2C(=O)N(c3ccc(C)cc3)C(=O)[C@@]12C	no
COc1ccc(C2=Nn3c(nnc3-c3ccccc3OC)SC2)cc1OC1CCCC1	yes
CC(C)(C)c1ccc(C(=O)NCCC(=O)NCc2ccco2)cc1	yes
CC(=O)Nc1ccc(N2CCOCC2)c(C(=O)Nc2cccc(C)c2)c1	no

Data provenance is PubChem BioAssay AID504467.
